System: DYRK2(h) (Homo sapiens)
Sequence (Q92630 1-601): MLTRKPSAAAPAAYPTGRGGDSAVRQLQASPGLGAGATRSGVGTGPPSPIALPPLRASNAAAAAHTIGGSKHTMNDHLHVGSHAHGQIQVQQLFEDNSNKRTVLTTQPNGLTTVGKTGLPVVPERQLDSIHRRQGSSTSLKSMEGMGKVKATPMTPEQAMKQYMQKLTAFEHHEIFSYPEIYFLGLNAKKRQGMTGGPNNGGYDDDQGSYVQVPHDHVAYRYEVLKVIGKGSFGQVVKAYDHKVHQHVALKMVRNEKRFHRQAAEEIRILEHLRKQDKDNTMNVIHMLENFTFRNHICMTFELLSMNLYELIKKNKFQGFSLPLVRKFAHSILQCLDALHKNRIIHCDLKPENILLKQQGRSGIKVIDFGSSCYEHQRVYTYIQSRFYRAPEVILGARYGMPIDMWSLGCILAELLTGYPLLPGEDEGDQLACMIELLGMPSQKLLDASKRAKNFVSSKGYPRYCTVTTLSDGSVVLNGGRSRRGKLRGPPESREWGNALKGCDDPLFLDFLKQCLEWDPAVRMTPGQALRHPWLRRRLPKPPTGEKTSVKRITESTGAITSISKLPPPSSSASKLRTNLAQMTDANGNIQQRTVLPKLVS
Experiment Summary: Kinase Profiling Assay
Assay type: biochemical
Assay Context: 100 μM peptide
Below, each entry is listed with its recorded DYRK2(h) % activity.
# output: bare number, implied unit %

Form field DYRK2(h) % activity, entry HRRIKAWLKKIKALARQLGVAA (Mammalian) [MMI-0500] : 127

// field: DYRK2(h) % activity; key: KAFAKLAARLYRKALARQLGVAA [MMI-0400] ; value = 195

// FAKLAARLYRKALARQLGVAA [MMI-0300] : DYRK2(h) % activity value = 155

Continuing:
# DYRK2(h) % activity of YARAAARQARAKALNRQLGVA (Mammalian) [MMI-0200] = 142

* * *

System: ROCK-II(h) (Homo sapiens, UniProt O75116)
Construct: purchased Millipore (IC50 Profiler Express service)
Sequence (O75116 whole entry): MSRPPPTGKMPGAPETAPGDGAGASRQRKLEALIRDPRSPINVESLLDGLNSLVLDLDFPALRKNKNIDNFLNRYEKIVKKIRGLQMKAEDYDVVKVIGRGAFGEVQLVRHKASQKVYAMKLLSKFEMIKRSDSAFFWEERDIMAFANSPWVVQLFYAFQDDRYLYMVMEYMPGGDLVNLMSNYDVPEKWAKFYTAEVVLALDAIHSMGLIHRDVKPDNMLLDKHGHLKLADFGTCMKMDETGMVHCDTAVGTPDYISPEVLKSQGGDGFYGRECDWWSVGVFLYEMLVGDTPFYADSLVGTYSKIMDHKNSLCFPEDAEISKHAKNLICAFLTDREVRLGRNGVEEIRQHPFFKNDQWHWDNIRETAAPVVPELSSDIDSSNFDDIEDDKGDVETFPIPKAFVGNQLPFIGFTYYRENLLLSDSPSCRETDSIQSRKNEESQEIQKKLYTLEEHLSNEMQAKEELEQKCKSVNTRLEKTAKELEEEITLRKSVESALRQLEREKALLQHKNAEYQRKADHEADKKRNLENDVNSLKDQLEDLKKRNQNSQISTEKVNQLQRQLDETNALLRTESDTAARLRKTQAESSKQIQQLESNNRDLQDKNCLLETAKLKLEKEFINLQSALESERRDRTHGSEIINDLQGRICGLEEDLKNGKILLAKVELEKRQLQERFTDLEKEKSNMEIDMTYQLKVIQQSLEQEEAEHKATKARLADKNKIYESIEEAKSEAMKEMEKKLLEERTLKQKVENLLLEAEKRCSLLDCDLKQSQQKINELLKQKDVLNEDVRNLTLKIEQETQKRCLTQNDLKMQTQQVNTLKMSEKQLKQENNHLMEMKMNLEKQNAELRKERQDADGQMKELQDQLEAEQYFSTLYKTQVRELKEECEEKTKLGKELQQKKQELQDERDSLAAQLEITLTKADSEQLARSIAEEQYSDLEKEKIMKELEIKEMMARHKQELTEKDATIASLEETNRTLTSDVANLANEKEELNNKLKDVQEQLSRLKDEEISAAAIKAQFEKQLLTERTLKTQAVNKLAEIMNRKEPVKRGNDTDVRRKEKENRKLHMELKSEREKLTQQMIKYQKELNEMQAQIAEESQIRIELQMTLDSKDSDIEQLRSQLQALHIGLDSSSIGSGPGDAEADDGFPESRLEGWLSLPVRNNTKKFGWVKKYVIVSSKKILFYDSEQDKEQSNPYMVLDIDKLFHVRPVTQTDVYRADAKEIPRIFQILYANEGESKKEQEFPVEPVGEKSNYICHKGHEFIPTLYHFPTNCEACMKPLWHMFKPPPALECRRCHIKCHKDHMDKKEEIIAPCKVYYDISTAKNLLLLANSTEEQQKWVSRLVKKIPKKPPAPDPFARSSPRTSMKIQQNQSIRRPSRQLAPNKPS
Experiment Summary: Kinase Profiling Assay
Type: biochemical
Assay Context: 100 μM peptide
Recorded ROCK-II(h) % activity for the following sequences

Worked cases, ROCK-II(h) % activity given:
Kindly note: ROCK-II(h) (Homo sapiens, UniProt O75116), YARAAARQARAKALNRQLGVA (Mammalian) [MMI-0200] , ROCK-II(h) % activity value reported: 85%

Kindly note: ROCK-II(h) (Homo sapiens, UniProt O75116), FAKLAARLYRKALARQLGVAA [MMI-0300] , ROCK-II(h) % activity value reported: 74%

The sequence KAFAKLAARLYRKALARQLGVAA [MMI-0400] , when measured on ROCK-II(h) (Homo sapiens, UniProt O75116), yielded ROCK-II(h) % activity of 77%

More entries:
Entry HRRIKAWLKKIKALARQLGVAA (Mammalian) [MMI-0500] : ROCK-II(h) % activity on ROCK-II(h) (Homo sapiens, UniProt O75116) = 2%

* * *

System: IRR(h) (Homo sapiens, UniProt P14616)
Construct: purchased Millipore
Sequence (P14616 27-1297): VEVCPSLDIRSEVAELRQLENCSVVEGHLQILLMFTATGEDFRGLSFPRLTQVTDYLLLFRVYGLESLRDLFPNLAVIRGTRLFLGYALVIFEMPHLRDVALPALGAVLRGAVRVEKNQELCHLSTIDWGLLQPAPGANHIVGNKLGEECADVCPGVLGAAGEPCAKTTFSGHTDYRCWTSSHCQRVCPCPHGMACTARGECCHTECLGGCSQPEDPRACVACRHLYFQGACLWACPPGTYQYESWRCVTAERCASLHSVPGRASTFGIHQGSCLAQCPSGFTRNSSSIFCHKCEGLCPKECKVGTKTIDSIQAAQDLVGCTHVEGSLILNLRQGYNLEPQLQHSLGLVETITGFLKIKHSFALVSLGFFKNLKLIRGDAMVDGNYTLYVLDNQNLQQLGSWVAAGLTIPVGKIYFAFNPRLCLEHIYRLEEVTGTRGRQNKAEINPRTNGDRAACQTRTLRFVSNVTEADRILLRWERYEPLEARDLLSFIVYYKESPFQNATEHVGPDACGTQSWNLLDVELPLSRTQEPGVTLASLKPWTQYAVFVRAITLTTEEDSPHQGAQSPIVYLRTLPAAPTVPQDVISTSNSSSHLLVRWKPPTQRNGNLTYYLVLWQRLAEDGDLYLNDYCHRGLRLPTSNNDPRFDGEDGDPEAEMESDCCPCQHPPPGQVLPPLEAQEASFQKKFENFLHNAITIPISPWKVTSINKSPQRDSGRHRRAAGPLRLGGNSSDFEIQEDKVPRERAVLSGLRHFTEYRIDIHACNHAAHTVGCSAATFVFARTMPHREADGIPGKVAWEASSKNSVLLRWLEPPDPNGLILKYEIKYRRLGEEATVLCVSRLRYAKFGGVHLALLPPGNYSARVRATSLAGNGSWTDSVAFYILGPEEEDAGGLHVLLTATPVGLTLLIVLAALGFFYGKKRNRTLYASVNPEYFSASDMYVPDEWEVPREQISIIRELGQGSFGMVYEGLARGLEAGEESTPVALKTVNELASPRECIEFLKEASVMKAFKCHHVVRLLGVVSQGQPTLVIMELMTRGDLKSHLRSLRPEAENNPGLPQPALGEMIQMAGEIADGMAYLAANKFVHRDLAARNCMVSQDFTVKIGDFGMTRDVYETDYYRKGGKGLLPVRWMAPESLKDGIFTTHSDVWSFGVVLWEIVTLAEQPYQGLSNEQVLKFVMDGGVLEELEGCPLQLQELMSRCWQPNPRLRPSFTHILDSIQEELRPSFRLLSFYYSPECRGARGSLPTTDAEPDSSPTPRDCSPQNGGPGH
Experiment Summary: Kinase Profiling Assay
Assay type: biochemical
Assay Context: 100 μM peptide
Value Kind: IRR(h) % activity (%)
Write down the numeric answer in % and omit the unit.

Value (IRR(h) % activity, IRR(h) (Homo sapiens, UniProt P14616)) for record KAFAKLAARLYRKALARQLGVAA [MMI-0400] = 8

Field IRR(h) % activity (system: IRR(h) (Homo sapiens, UniProt P14616)) for entry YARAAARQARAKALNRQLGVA (Mammalian) [MMI-0200] = 69

Note to self: IRR(h) % activity of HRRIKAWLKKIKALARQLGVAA (Mammalian) [MMI-0500] with IRR(h) (Homo sapiens, UniProt P14616) was 10

Simply: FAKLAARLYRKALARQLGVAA [MMI-0300] , IRR(h) (Homo sapiens, UniProt P14616), IRR(h) % activity = 8

* * *

System: SAPK3(h) (Homo sapiens, UniProt P53778)
Sequence (P53778 1-367): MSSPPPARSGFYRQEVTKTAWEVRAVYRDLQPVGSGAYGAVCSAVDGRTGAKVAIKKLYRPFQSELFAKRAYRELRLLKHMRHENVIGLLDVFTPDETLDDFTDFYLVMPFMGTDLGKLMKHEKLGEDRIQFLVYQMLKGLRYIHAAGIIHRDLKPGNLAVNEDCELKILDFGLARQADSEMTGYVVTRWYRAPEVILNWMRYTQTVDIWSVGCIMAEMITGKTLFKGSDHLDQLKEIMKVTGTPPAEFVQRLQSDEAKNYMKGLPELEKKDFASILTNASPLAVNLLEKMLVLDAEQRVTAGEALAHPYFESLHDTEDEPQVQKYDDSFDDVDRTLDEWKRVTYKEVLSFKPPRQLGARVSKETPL
Experiment Summary: Kinase Profiling Assay
Assay type: biochemical
Assay Context: 100 μM peptide
Experimental: Every kinase activity measurement was conducted in duplicate. In addition to determining the IC50 of the compound, the specificity of MK2 inhibitory peptides was assessed by examining activities of all 266 human kinases available for testing in the Millipore kinase profiling service (Table 1).
Value Kind: SAPK3(h) % activity (%)
The reply should contain only the number, in %.

Measured SAPK3(h) % activity of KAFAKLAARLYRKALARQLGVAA [MMI-0400] : 79

---
Briefly, SAPK3(h) % activity measured for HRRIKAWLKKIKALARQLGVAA (Mammalian) [MMI-0500] : 24

# SAPK3(h) % activity (sequence: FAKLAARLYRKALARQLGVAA [MMI-0300] ) is 84

Looking up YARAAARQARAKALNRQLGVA (Mammalian) [MMI-0200] , I see its SAPK3(h) % activity listed as 97

* * *

System: PKCμ(h) (Homo sapiens, UniProt Q15139)
Construct: purchased Millipore (IC50 Profiler Express service)
Sequence (Q15139 1-912): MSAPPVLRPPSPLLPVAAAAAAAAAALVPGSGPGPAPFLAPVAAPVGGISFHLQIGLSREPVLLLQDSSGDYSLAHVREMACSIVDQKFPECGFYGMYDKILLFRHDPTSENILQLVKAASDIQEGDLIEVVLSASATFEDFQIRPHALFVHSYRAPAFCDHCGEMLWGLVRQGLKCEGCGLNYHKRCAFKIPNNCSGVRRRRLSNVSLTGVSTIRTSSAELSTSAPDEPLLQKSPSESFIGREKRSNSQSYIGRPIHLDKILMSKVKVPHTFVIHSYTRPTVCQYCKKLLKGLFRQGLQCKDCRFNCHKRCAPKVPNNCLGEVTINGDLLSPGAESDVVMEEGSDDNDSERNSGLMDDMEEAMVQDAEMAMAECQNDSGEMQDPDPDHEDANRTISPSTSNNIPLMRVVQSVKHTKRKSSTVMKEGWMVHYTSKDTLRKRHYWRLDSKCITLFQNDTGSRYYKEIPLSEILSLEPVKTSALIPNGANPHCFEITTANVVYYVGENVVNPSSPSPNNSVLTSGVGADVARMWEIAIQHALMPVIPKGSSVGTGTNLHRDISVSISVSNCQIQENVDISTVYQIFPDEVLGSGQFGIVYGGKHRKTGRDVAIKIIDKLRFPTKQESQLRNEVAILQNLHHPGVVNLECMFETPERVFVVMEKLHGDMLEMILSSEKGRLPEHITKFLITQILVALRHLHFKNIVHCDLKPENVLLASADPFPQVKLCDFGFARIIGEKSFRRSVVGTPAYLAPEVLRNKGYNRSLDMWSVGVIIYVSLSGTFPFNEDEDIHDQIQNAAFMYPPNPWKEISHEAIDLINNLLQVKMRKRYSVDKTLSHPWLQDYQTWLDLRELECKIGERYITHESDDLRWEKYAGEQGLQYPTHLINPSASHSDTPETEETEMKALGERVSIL
Experiment Summary: Kinase Profiling Assay
Type: biochemical
Assay Context: 100 μM peptide
Procedure: Every kinase activity measurement was conducted in duplicate. In addition to determining the IC50 of the compound, the specificity of MK2 inhibitory peptides was assessed by examining activities of all 266 human kinases available for testing in the Millipore kinase profiling service (Table 1).
Value Kind: PKCμ(h) % activity (%)
Give the quantity in %, number only.

Consider the following illustrative entries.
Entry under test: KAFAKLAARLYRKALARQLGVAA [MMI-0400] . Its PKCμ(h) % activity was 14

Summary for this sequence, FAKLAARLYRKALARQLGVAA [MMI-0300] : PKCμ(h) % activity is 22

Measured PKCμ(h) % activity of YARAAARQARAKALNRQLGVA (Mammalian) [MMI-0200] : 73

More entries:
The value of PKCμ(h) % activity measured for the sequence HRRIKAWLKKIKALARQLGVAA (Mammalian) [MMI-0500] turned out to be 10
